- EXPERIMENT DESCRIPTION: Metabolic stability in mouse intestinal homogenate (GIh)
- PROTOCOL CONDITIONS: supplementary CSV; unit not given; matches Table 1 % remaining at 1 h; in %
Items are presented alongside their recorded Intestinal homogenate.

MOLECULE	Intestinal homogenate
CN(C)CC(=O)N[C@H](C(=O)N[C@@H](CCC(=O)C=[N+]=[N-])C(=O)OC(C)(C)C)c1ccccc1 [Prodrug P13]	92 ± 1
CC(C)C[C@H](NC(=O)CN(C)C)C(=O)N[C@@H](CCC(=O)C=[N+]=[N-])C(=O)OC(C)(C)C [Prodrug P20]	79 ± 0
CN(C)CC(=O)N[C@@H](Cc1ccc(F)cc1)C(=O)N[C@@H](CCC(=O)C=[N+]=[N-])C(=O)OC(C)(C)C [Prodrug P15]	67 ± 1
CC(=O)N[C@@H](Cc1c[nH]c2ccccc12)C(=O)N[C@@H](CCC(=O)C=[N+]=[N-])C(=O)OC(C)C [DRP-104, reference compound]	0 ± 0
CN(C)CC(=O)N[C@@H](CCc1ccccc1)C(=O)N[C@@H](CCC(=O)C=[N+]=[N-])C(=O)OC(C)(C)C [Prodrug P14]	97 ± 3
CC(=O)N[C@@H](Cc1c[nH]c2ccccc12)C(=O)N[C@@H](CCC(=O)C=[N+]=[N-])C(=O)OC1CC1 [Prodrug P3]	6 ± 0
C[C@H](NC(=O)CN(C)C)C(=O)N[C@@H](CCC(=O)C=[N+]=[N-])C(=O)OC(C)(C)C [Prodrug P19]	86 ± 4

###

- EXPERIMENT DESCRIPTION: in vitro
- PROTOCOL CONDITIONS: CES1–/–, mouse, plasma

COMPOUND	remaining at 1 h, 10 µM
CC(C)(C)OC(=O)[C@H](CCC(=O)C=[N+]=[N-])NC(=O)[C@H](Cc1c[nH]c2ccccc12)NC(=O)C12CCN(CC1)CC2 [Prodrug P8]	106%

###

- EXPERIMENT DESCRIPTION: Metabolic stability in mouse plasma
- PROTOCOL CONDITIONS: supplementary CSV; unit not given; matches Table 1 % remaining at 1 h; in %
Items are presented alongside their recorded Plasma.

MOLECULE	Plasma
CN(C)CC(=O)NCC(=O)N[C@@H](CCC(=O)C=[N+]=[N-])C(=O)OC(C)(C)C [Prodrug P18]	108
C[C@H](NC(=O)CN(C)C)C(=O)N[C@@H](CCC(=O)C=[N+]=[N-])C(=O)OC(C)(C)C [Prodrug P19]	99
CC(C)C[C@H](NC(=O)CN(C)C)C(=O)N[C@@H](CCC(=O)C=[N+]=[N-])C(=O)OC(C)(C)C [Prodrug P20]	98
CNC(=O)[C@H](CCC(=O)C=[N+]=[N-])NC(=O)[C@H](Cc1c[nH]c2ccccc12)NC(C)=O [Prodrug P6]	102

###

- EXPERIMENT DESCRIPTION: Metabolic stability in mouse intestinal homogenate (GIh)
- PROTOCOL CONDITIONS: CES1–/–, mouse, intestinal homogenate
Items are presented alongside their recorded remaining at 1 h, 10 μM.

COMPOUND	remaining at 1 h, 10 μM
CN(C)CC(=O)N[C@H](C(=O)N[C@@H](CCC(=O)C=[N+]=[N-])C(=O)OC(C)(C)C)c1ccccc1 [Prodrug P13]	92%
CC(=O)N[C@@H](Cc1c[nH]c2ccccc12)C(=O)N[C@@H](CCC(=O)C=[N+]=[N-])C(=O)OCC1CC1 [Prodrug P4]	< 10%
CC(=O)N[C@@H](Cc1c[nH]c2ccccc12)C(=O)N[C@@H](CCC(=O)C=[N+]=[N-])C(=O)OC(C)(C)C [Prodrug P5]	> 50%
CCOC(=O)[C@H](CCC(=O)C=[N+]=[N-])NC(=O)[C@H](Cc1c[nH]c2ccccc12)NC(C)=O [Prodrug P2]	< 10%
CNC(=O)[C@H](CCC(=O)C=[N+]=[N-])NC(=O)[C@H](Cc1c[nH]c2ccccc12)NC(C)=O [Prodrug P6]	> 50%
CC(=O)N[C@@H](Cc1c[nH]c2ccccc12)C(=O)N[C@@H](CCC(=O)C=[N+]=[N-])C(=O)OC1CC1 [Prodrug P3]	< 10%
COC(=O)[C@H](CCC(=O)C=[N+]=[N-])NC(=O)[C@H](Cc1c[nH]c2ccccc12)NC(C)=O [Prodrug P1]	< 10%

###

- EXPERIMENT DESCRIPTION: Metabolic stability in mouse plasma
- PROTOCOL CONDITIONS: supplementary CSV; unit not given; matches Table 1 % remaining at 1 h; in %

COMPOUND	Plasma
CN(C)CC(=O)N[C@@H](CC(C)(C)C)C(=O)N[C@@H](CCC(=O)C=[N+]=[N-])C(=O)OC(C)(C)C [Prodrug P21]	98
CN(C)CC(=O)N[C@H](Cc1ccccc1)C(=O)N[C@@H](CCC(=O)C=[N+]=[N-])C(=O)OC(C)(C)C [Prodrug P12]	92
CN(C)CC(=O)N[C@@H](Cc1c[nH]c2ccccc12)C(=O)N[C@@H](CCC(=O)C=[N+]=[N-])C(=O)OC(C)(C)C [Prodrug P9]	102
CN(C)CC(=O)N[C@H](C(=O)N[C@@H](CCC(=O)C=[N+]=[N-])C(=O)OC(C)(C)C)c1ccccc1 [Prodrug P13]	92
CN(C)CC(=O)N[C@@H](Cc1cn(C)c2ccccc12)C(=O)N[C@@H](CCC(=O)C=[N+]=[N-])C(=O)OC(C)(C)C [Prodrug P10]	97
CN(C)CC(=O)N[C@@H](CCc1ccccc1)C(=O)N[C@@H](CCC(=O)C=[N+]=[N-])C(=O)OC(C)(C)C [Prodrug P14]	102
CN(C)CC(=O)N[C@@H](Cc1ccc(F)cc1)C(=O)N[C@@H](CCC(=O)C=[N+]=[N-])C(=O)OC(C)(C)C [Prodrug P15]	108
CC(=O)N[C@@H](Cc1c[nH]c2ccccc12)C(=O)N[C@@H](CCC(=O)C=[N+]=[N-])C(=O)OC(C)C [DRP-104, reference compound]	94
CC(=O)N[C@@H](Cc1c[nH]c2ccccc12)C(=O)N[C@@H](CCC(=O)C=[N+]=[N-])C(=O)OC(C)(C)C [Prodrug P5]	92
CN(C)CC(=O)N[C@@H](Cc1cccc(F)c1)C(=O)N[C@@H](CCC(=O)C=[N+]=[N-])C(=O)OC(C)(C)C [Prodrug P16]	99
CN(C)CC(=O)N[C@@H](Cc1ccc(C(F)(F)F)cc1)C(=O)N[C@@H](CCC(=O)C=[N+]=[N-])C(=O)OC(C)(C)C [Prodrug P17]	70
CN(C)CC(=O)N[C@@H](Cc1ccccc1)C(=O)N[C@@H](CCC(=O)C=[N+]=[N-])C(=O)OC(C)(C)C [Prodrug P11]	93

###

- EXPERIMENT DESCRIPTION: Metabolic stability in mouse intestinal homogenate (GIh)
- PROTOCOL CONDITIONS: CES1–/–, mouse, intestinal homogenate
Items are presented alongside their recorded remaining at 1 h, 10 µM.

COMPOUND	UNITS LABEL	remaining at 1 h, 10 µM
COC(=O)[C@H](CCC(=O)C=[N+]=[N-])NC(=O)[C@H](Cc1c[nH]c2ccccc12)NC(C)=O [Prodrug P1]	%	4
CC(=O)N[C@@H](Cc1c[nH]c2ccccc12)C(=O)N[C@@H](CCC(=O)C=[N+]=[N-])C(=O)OC(C)(C)C [Prodrug P5]	%	99
CN(C)CC(=O)N[C@@H](Cc1ccccc1)C(=O)N[C@@H](CCC(=O)C=[N+]=[N-])C(=O)OC(C)(C)C [Prodrug P11]	%	78

###

Items are presented alongside their recorded solubility at 1 h.
- EXPERIMENT DESCRIPTION: Aqueous solubility assay in PBS buffer (pH 7.4)
- Assay type: physicochemical
- PROTOCOL CONDITIONS: PBS buffer pH 7.4; 37 °C; 1 h
MEASURED ATTRIBUTE: solubility at 1 h (µg/mL)

COMPOUND	MEASUREMENT
CN(C)CC(=O)N[C@@H](Cc1ccccc1)C(=O)N[C@@H](CCC(=O)C=[N+]=[N-])C(=O)OC(C)(C)C [Prodrug P11]	8100
CC(=O)N[C@@H](Cc1c[nH]c2ccccc12)C(=O)N[C@@H](CCC(=O)C=[N+]=[N-])C(=O)OC(C)C [DRP-104, reference compound]	240

###

- EXPERIMENT DESCRIPTION: in vitro
- PROTOCOL CONDITIONS: CES1–/–, mouse, tissue homogenate
MEASURED ATTRIBUTE: remaining at 1 h, 10 µM (%)

MOLECULE	MEASURED ATTRIBUTE	UNITS LABEL	MEASUREMENT
CC(C)(C)OC(=O)[C@H](CCC(=O)C=[N+]=[N-])NC(=O)[C@H](Cc1c[nH]c2ccccc12)NC(=O)C12CCN(CC1)CC2 [Prodrug P8]	remaining at 1 h, 10 µM	%	71

Hello, the source for this data is paper PMC10683027, in case you need it.
